Tested on: phosphorylated ZAP70
method description: Phosphorylated ZAP70 in cynomolgus macaque CD8+ T cells from whole blood in vitro (flow cytometry)
Format: cell-based
test settings: Macaca fascicularis, T-cell, whole blood from six cynomolgus macaques, 2 hrs 37° C., 2 μg/mL anti-CD3 & anti-CD28 + crosslinker 60 minutes, read-out: Average mean EC50±standard deviation, phosphorylated ZAP70
Experimental: To assess these candidate clinical proximal biomarkers of Cbl-b inhibition on T cells, pharmacodynamic analysis was performed. Whole blood was obtained from cynomolgus macaque donors, then incubated with increasing concentrations of Compound 23. The response to Cbl-b inhibition on phosphorylated HS1, ZAP70 and PLCγ2 was measured in CD8^+ T cells using flow cytometry. […]
reported metric: pEC50
One number for each entry, as −log10 of the molar value.

What measured pEC50 goes with C[C@H]1CCCN(Cc2cc3c(c(C(F)(F)F)c2)CN(c2cccc([C@]4(c5nncn5C)C[C@@H](C)C4)c2)C3=O)C1 [Compound 23] ?
6.76
